System: TA3
Assay: Cytotoxicity against mouse TA3 cells assessed as concentration required to produce 50% decrease in protein production
Format: functional
Each entry gets n if its Activity stays under 20 ×10⁻⁷ M, and y if its Activity is 20 ×10⁻⁷ M or above.

Query block: I'd appreciate it if you could say whether "COc1cc([C@H]2c3cc4c(cc3C[C@H]3CSC[C@@H]32)OCO4)cc(OC)c1OC" has Activity at least equal to 20 ×10⁻⁷ M.
Result block: y

Query block: And then "COc1cc([C@H]2c3cc4c(cc3C[C@H]3CCC[C@@H]32)OCO4)cc(OC)c1OC" , what is it?
Result block: y

Query block: And the next one, "COc1cc([C@H]2c3cc4c(cc3[C@@H](O)[C@H]3COC[C@H]23)OCO4)cc(OC)c1OC" ?
Result block: n

Query block: Another compound: "COc1cc([C@H]2c3cc4c(cc3[C@@H](O)[C@H]3CS(=O)(=O)C[C@H]23)OCO4)cc(OC)c1OC"
Result block: y

Query block: "COc1cc([C@H]2c3cc4c(cc3[C@@H](O)[C@H]3CSC[C@H]23)OCO4)cc(OC)c1OC" ?
Result block: y

Query block: Another compound to check: "COc1cc([C@H]2c3cc4c(cc3C[C@H]3COC[C@@H]32)OCO4)cc(OC)c1OC"
Result block: n

Query block: Moving on to the next compound: "COc1cc([C@H]2c3cc4c(cc3C[C@H]3CS(=O)(=O)C[C@@H]32)OCO4)cc(OC)c1OC"
Result block: y

Query block: Same for "COc1cc([C@H]2c3cc4c(cc3[C@@H](O)[C@H]3COC(=O)[C@H]23)OCO4)cc(OC)c1OC"
Result block: n

Query block: Could you do the same for "COc1cc([C@H]2c3cc4c(cc3C[C@H]3CC(=O)C[C@@H]32)OCO4)cc(OC)c1OC" , please?
Result block: n

---

System: P815
Assay: Cytotoxicity against mouse P815 cells assessed as concentration required to produce 50% arrest of mitotic activity
Assay type: functional
I'd appreciate it if you marked entries Yes when Activity is lower than 2 ×10⁻⁷ M and No when it is not.

Query block: Is Activity of "COc1cc([C@H]2c3cc4c(cc3C[C@H]3COC[C@@H]32)OCO4)cc(OC)c1OC" strictly below 2 ×10⁻⁷ M?
Result block: Yes

Query block: Likewise for "COc1cc([C@H]2c3cc4c(cc3[C@@H](O)[C@H]3COC[C@H]23)OCO4)cc(OC)c1OC" ?
Result block: Yes

Query block: Moving on to the next molecule: "COc1cc([C@H]2c3cc4c(cc3C[C@H]3CC(=O)C[C@@H]32)OCO4)cc(OC)c1OC"
Result block: Yes

Query block: And for "COc1cc([C@H]2c3cc4c(cc3[C@@H](O)[C@H]3COC(=O)[C@H]23)OCO4)cc(OC)c1OC" ?
Result block: Yes

Query block: What about this molecule? "COc1cc([C@H]2c3cc4c(cc3[C@@H](O)[C@H]3COC(=O)[C@@H]23)OCO4)cc(OC)c1OC"
Result block: Yes

Query block: Please do the same for "COc1cc([C@H]2c3cc4c(cc3C[C@H]3CSC[C@@H]32)OCO4)cc(OC)c1OC" as well.
Result block: No

Query block: Also check "COc1cc([C@H]2c3cc4c(cc3[C@@H](O)[C@H]3CS(=O)(=O)C[C@H]23)OCO4)cc(OC)c1OC"
Result block: No

Query block: Would you mind doing "COc1cc([C@H]2c3cc4c(cc3[C@@H](O)[C@H]3CSC[C@H]23)OCO4)cc(OC)c1OC" as well?
Result block: No

---

Would you kindly list Activity for each of these molecules?
Species: Gallus gallus
Assay: Inhibition of tubulin in chick brain assessed as concentration required to inhibit microtubule formation by 50%
Express your answer in ×10⁻⁷ M, writing the number without its unit.

Query block: Sample "COc1cc([C@H]2c3cc4c(cc3[C@@H](O)[C@H]3COC[C@H]23)OCO4)cc(OC)c1OC" — what was its Activity?
Result block: 10

Query block: And "COc1cc([C@H]2c3cc4c(cc3C[C@H]3CSC[C@@H]32)OCO4)cc(OC)c1OC" ?
Result block: 100

Query block: "COc1cc([C@H]2c3cc4c(cc3C[C@H]3COC[C@@H]32)OCO4)cc(OC)c1OC" ?
Result block: 8

Query block: Also "COc1cc([C@H]2c3cc4c(cc3[C@@H](O)[C@H]3COC(=O)[C@H]23)OCO4)cc(OC)c1OC" ?
Result block: 6

Query block: Same again, this time with "COc1cc([C@H]2c3cc4c(cc3C[C@H]3CCC[C@@H]32)OCO4)cc(OC)c1OC"
Result block: 50

Query block: What about this molecule? "COc1cc([C@H]2c3cc4c(cc3[C@@H](O)[C@H]3CSC[C@H]23)OCO4)cc(OC)c1OC"
Result block: 100

Query block: What do you get for "COc1cc([C@H]2c3cc4c(cc3C[C@H]3CC(=O)C[C@@H]32)OCO4)cc(OC)c1OC" ?
Result block: 50

---

Task for the reader: assign each of the following compounds its reported Activity.
Tested on: P815
Assay: Cytotoxicity against mouse P815 cells assessed as concentration required to produce 50% arrest of mitotic activity
Assay type: functional
Return type: number; implicit unit ×10⁻⁷ M.

Query block: What value of measured Activity is listed for "COc1cc([C@H]2c3cc4c(cc3C[C@H]3CCC[C@@H]32)OCO4)cc(OC)c1OC" ?
Result block: 6.5

Query block: Lookup "COc1cc([C@H]2c3cc4c(cc3C[C@H]3COC(=O)[C@@H]32)OCO4)cc(OC)c1OC"
Result block: 0.05

Query block: What about "COc1cc([C@H]2c3cc4c(cc3C[C@H]3COC(=O)[C@H]32)OCO4)cc(OC)c1OC" ?
Result block: 1.3

Query block: Likewise for "COc1cc([C@H]2c3cc4c(cc3C[C@H]3CS(=O)(=O)C[C@@H]32)OCO4)cc(OC)c1OC" ?
Result block: 69

---

Species: Gallus gallus
Assay: Competitive binding affinity to tubulin in chick embryo brain by radioactive colchicine displacement assay
Format: tissue-based
MEASUREMENT_TYPE: KA (×10⁶ L/mol)
Give your result in ×10⁶ L/mol as a bare value.

Query block: Sample "COc1cc([C@H]2c3cc4c(cc3[C@@H](O)[C@H]3COC[C@H]23)OCO4)cc(OC)c1OC" — what was its KA?
Result block: 0.2

Query block: Would you kindly repeat that for "COc1cc([C@H]2c3cc4c(cc3C[C@H]3CC(=O)C[C@@H]32)OCO4)cc(OC)c1OC" ?
Result block: 0.02

Query block: Same read-out for "COc1cc([C@H]2c3cc4c(cc3C[C@H]3CCC[C@@H]32)OCO4)cc(OC)c1OC" ?
Result block: 0.02

Query block: Also "COc1cc([C@H]2c3cc4c(cc3[C@@H](O)[C@H]3COC(=O)[C@H]23)OCO4)cc(OC)c1OC" ?
Result block: 2

Query block: Record: "COc1cc([C@H]2c3cc4c(cc3C[C@H]3COC[C@@H]32)OCO4)cc(OC)c1OC"
Result block: 0.4

Query block: What about this molecule? "COc1cc([C@H]2c3cc4c(cc3C[C@H]3COC(=O)[C@@H]32)OCO4)cc(OC)c1OC"
Result block: 2
